protocol.text: Inhibition of rabbit muscle Fba
Set-up: species or system Oryctolagus cuniculus
pKi: −log10 of the molar value.
metric: pKi

1) O=P(O)(O)OC[C@@H](O)[C@@H](O)[C@H](O)[C@@H](O)COP(=O)(O)O : 4.00
2) O=P(O)(O)OC[C@@H](O)[C@@H](O)[C@H](O)[C@H](O)COP(=O)(O)O : 5.14

This collection of values is drawn from ChEMBL document CHEMBL1141517.
